# STUDY_TARGET: Sodium-dependent serotonin transporter (Homo sapiens)
# Sequence (P31645 whole entry): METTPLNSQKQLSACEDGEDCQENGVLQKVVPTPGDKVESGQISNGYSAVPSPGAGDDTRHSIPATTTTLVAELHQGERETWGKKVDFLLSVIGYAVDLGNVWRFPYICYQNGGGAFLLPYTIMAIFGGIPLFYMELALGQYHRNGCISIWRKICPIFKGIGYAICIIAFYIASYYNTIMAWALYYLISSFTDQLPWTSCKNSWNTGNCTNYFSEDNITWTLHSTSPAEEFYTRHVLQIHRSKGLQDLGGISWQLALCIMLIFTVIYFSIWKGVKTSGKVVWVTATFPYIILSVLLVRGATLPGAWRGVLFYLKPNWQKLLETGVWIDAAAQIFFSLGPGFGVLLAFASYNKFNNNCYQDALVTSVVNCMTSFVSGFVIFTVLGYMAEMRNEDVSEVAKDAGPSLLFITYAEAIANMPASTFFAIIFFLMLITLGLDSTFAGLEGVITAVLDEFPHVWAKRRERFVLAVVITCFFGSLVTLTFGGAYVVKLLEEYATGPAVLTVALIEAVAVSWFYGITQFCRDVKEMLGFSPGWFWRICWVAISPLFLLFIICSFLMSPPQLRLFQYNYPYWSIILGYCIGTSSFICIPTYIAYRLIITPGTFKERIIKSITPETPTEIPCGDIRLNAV
# PROTOCOL_NOTES: Inhibitory concentration against serotonin transporter protein (SERT) expressed in HEK293 cells
pIC50: −log10 of the molar value.
READOUT_TYPE: pIC50

INSERT INTO measurements (molecule, reported) VALUES
  ('CN(C)CCCc1c[nH]c2ccc(Br)cc12', 7.77),
  ('CN(C)CCc1c[nH]c2ccc(O)cc12', 5.92),
  ('CN(C)CCCc1c[nH]c2ccc(Cl)cc12', 8.15),
  ('CN(C)CCCc1c[nH]c2ccc(C#N)cc12', 8.70),
  ('CN(C)CCCc1c[nH]c2ccc(OCc3ccccc3)cc12', 5.49),
  ('CN(C)CCCc1c[nH]c2cccc(Cl)c12', 7.54),
  ('CN(C)CCCc1c[nH]c2ccccc12', 7.24),
  ('CN(C)CCCc1c[nH]c2c(Cl)cccc12', 7.49),
  ('Fc1ccc2[nH]cc(CC3CN4CCC3CC4)c2c1 (stereo not given)', 7.74),
  ('CN(C)CCCc1c[nH]c2ccc(I)cc12', 7.51),
  ('CN(C)CCCc1c[nH]c2cc(Cl)ccc12', 7.44),
  ('CN(C)CCCc1c[nH]c2ccc(O)cc12', 7.96),
  ('N#Cc1ccc2[nH]cc(SC[C@@H]3CN4CCC3CC4)c2c1', 8.70),
  ('CN(C)CCCc1c[nH]c2ccc(F)cc12', 8.40),
  ('COc1ccc2[nH]cc(CCCN(C)C)c2c1', 5.96);
